Record set: Ki | UniProtKB P28223 | literature, multiple sources.
testReadout: Ki (µM)

CCCc1c(COc2ccc(C=NN=C(N)N)cc2)ccc(C(C)=O)c1O    0.065

1 = CC(CN(C)C)CN1c2ccccc2Sc2ccc(C#N)cc21 (stereo unspecified)
2 = NC(N)=NN=C(c1ccccc1)C1CCC(Cl)S1 (stereo unspecified)
# argmax over Ki for candidates 1 and 2 Record your answer as the label of the chosen record.
2

P = CCCc1c(COc2ccc(C=NN=C(N)N)cc2)ccc(C(=O)CC)c1O
Q = Cn1ccc2cc3c(cc21)CCN3C(=O)Nc1cccnc1
R = CN(C)C1CCc2[nH]c3ccc(NC(=O)c4ccc(F)cc4)cc3c2C1 (stereo unspecified)
Order the records, beginning with the lowest Ki and ending with the highest. Please list the labels in the order you were asked to rank them.
P, Q, R
